These entries and their values trace back to patent US20160185837A1.

# experimentalSystem: T1, rat GIP receptor (rat) (UniProt P43219)
# T1 sequence (looked up): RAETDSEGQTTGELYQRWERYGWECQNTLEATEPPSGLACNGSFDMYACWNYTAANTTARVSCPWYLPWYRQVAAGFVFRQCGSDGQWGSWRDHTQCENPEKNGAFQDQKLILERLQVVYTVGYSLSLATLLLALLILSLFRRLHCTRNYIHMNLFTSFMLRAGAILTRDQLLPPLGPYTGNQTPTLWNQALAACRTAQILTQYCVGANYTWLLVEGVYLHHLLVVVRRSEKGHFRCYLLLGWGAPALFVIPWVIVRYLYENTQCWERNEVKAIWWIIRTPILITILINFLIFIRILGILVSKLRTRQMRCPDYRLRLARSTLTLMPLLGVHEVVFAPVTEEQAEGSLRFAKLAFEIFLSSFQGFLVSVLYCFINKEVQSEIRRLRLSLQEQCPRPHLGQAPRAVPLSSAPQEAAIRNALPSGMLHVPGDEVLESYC
# protocol: cell-based or functional assay
readout: cAMP EC50 (nM)

[a] IP396 (Fc fusion) YSEGTFTSDYSKLLERQAIDEFIAWLLKGGGGGGGSGGGGSGGGGSGGGGSACPPC
[b] IP398 (Fc fusion) YSEGTFISDYSIAMDKIHQQDFVNWLLAQKGKKNDWKHNITQGGGGSGGGGSGGGGSGGGGSGGGGSGGGGSACPPC
[c] IP310 (Fc fusion) YSEGTFTSDVSSYMERQAIDEFIAWLLKGKAAAGGSGSTASSGSGSATGGGGAATHTCPPC
input: // ascending sort on recorded cAMP EC50 Write the labels in rank order as requested.
output: b, a, c
